Each recorded value in this set is attributed to patent US20240239788A1.

IC50 values for the compounds below.
Target: KRAS protein containing G12D mutation (Homo sapiens (Human), UniProt P01116, G12D)
Sequence (P01116 other isoform, or with tags, fused parts or gaps G12D (already in the parent)): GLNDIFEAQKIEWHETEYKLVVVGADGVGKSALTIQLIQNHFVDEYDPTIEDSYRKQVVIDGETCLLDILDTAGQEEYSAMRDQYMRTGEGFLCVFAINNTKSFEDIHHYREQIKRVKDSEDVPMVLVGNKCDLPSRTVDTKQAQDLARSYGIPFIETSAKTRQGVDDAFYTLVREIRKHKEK
Assay: SOS-catalyzed nucleotide exchange assay (GNE), TR-FRET
Format: biochemical
Settings: biotinylated KRAS G12D, SOS and GTP, 60-minute incubation

Example entries begin here.
COMPOUND	VALUE
C[C@]12CC[C@H](CN(c3nc(OC[C@@]45CCCN4C[C@H](F)C5)nc4c(F)c(-c5c(F)cc(F)c6oc(N)nc56)c(Cl)cc34)C1)N2 (single isomer, unassigned) [Ex. 170a]	4.72 nM
Nc1cc(-c2c(Cl)cc3c(N4CC5CCC(C4)N5)nc(OC[C@@]45CCCN4C[C@H](F)C5)nc3c2F)c(C(F)(F)F)c(Cl)n1 (single isomer, unassigned) [Ex. 155a]	330 nM

Continue with the next compound.
State the recorded IC50 for this entry: Cc1cc2[nH]ncc2c(-c2c(F)cc3c(N4CC5CCC(C)(C4)N5)nc(OCC4(CN5CCOCC5)CC4)nc3c2F)c1OC(F)(F)F (stereo in doubt)
148 nM

###

Target: KRAS protein containing G12D mutation (Homo sapiens (Human), UniProt P01116, G12D)
Assay: SOS-catalyzed nucleotide exchange assay (GNE), TR-FRET
Assay type: biochemical
Details: biotinylated KRAS G12D, SOS and GTP, 60-minute incubation
The label is 1.0 for IC50 below 100 nM and 0.0 for IC50 equal to or exceeding 100 nM.

COMPOUND	CATEGORY LABEL
Nc1cc(Cl)c(C(F)(F)F)c(-c2c(Cl)cc3c(N4CC5CCC(C4)N5)nc(OC[C@@]45CCCN4C[C@H](F)C5)nc3c2F)n1 (single isomer, unassigned) [Ex. 154a]	1.0

Determine if C#Cc1c(F)ccc2cccc(-c3c(F)cc4c(N5CC6CC[C@@](C)(C5)N6)nc(OCC56CCCN5C(COC(=O)N(C)C)CC6)nc4c3F)c12 (single isomer, unassigned) [242b] shows IC50 strictly lower than 100 nM.
1.0

Same question, C#Cc1cccc2cc(O)cc(-c3c(F)cc4c(N5C[C@]6(C)CC[C@](F)(C5)N6)nc(OC[C@@]56CCCN5C[C@H](F)C6)nc4c3F)c12 [compound 240] this time
0.0

One more compound: CN(C)CC1(COc2nc(N3CC4CCC(CC#N)(C3)N4)c3cc(Cl)c(-c4cc(O)cc5ccccc45)c(F)c3n2)CC1 (stereo not drawn) [Example 36]
0.0

For C[C@@]12CC[C@H](CN(c3nc(OC[C@@]45CCCN4C[C@H](F)C5)nc4c(F)c(-c5cccc6ccc(F)c(F)c56)c(F)cc34)C1)N2 [compound 197] then?
1.0

Param item: Nc1cc(F)c(C(F)(F)F)c(-c2c(F)cc3c(N4CC5CCC(C4)N5)nc(OC[C@@]45CCCN4C[C@H](F)C5)nc3c2F)c1F (single isomer, unassigned) [Ex. 145a]
0.0

###

Target: KRAS G12D / Ras binding domain of C-RAF (Homo sapiens (Human), UniProt P01116, G12D)
Sequence (P01116 other isoform, or with tags, fused parts or gaps G12D (already in the parent)): as above
Experiment: RAS:RAF-RBD binding assay (cRaf), TR-FRET
Settings: IC50 (nM) (cRaf), biotinylated KRAS G12D, GST-C-RAF RBD
REPORTED PROPERTY: IC50 (nM)
Could you give me the number in nM? Just the number is fine.

COMPOUND	EXPERIMENTAL SYSTEM	VALUE
C#Cc1cccc2cc(O)cc(-c3c(F)cc4c(N5C[C@H]6CC[C@@](C)(C5)N6)nc(OCC5(CN6CC[C@@H](F)C6)CC5)nc4c3F)c12 (single isomer, unassigned) [103a]	KRAS G12D / Ras binding domain of C-RAF (Homo sapiens (Human), UniProt P01116, G12D)	26.2

# IC50 lookup, item CN(C)CC1(COc2nc(N3C[C@H]4CC[C@@](C)(C3)N4)c3nnc(-c4cc(O)cc5ccccc45)cc3n2)CC1 [Ex. 101]
20900

Try this compound too: CN(C)CC1(COc2nc(N3CC4CC[C@@](C)(C3)N4)c3cc(Cl)c(-c4cc(O)cc5ccccc45)c(F)c3n2)CC1 [Example 35]
1890

Query Cc1c(Cl)cc2[nH]nc(C)c2c1-c1c(F)cc2c(N3C[C@H]4CC[C@@](C)(C3)N4)nc(OCC3(CN(C)C)CC3(F)F)nc2c1F (single isomer, unassigned) [Ex 68] next
3300

And then CN(C)CC1(COc2nc(N3CC4C[C@@H](O)[C@@](C)(C3)N4)c3cc(Cl)c(-c4cc(O)cc5ccccc45)c(F)c3n2)CC1 (stereo in doubt) [Example 43] , what is it?
2200

Moving on to Cc1cc2[nH]ncc2c(-c2c(F)cc3c(N4C[C@H]5CC[C@@](C)(C4)N5)nc(OC[C@]4(CN(C)C)CC4(F)F)nc3c2F)c1C [Ex 82]
14800

What do you get for CN(C)CC1(COc2nc(N3CC4CCC(CC#N)(C3)N4)c3cc(Cl)c(-c4cc(O)cc5ccccc45)c(F)c3n2)CC1 (stereo not shown) [Example 36] ?
50000

###

Target: KRAS G12D / Ras binding domain of C-RAF (Homo sapiens (Human), UniProt P01116, G12D)
Assay: RAS:RAF-RBD binding assay (cRaf), TR-FRET
Conditions: read-out: IC50 (nM) (cRaf); biotinylated KRAS G12D, GST-C-RAF RBD
REPORTED PROPERTY: IC50 (nM)
Quick note: give the figure in nM, leave out the unit.

These solved cases illustrate the format of a correct answer.
COMPOUND	IC50 [nM]
C[C@]12CC[C@H](CN(c3nc(OCC4(CN5CC[C@@H](F)C5)CC4)nc4c3CCN(c3cccc5cccc(Br)c35)C4)C1)N2 [Ex. 93]	35300
CN1CCC[C@H]1COc1nc(N2CC3CCC(C2)N3)c2cc(Cl)c(-c3cc(O)cc4ccccc34)c(F)c2n1 [Ex. 5]	17300

From here, focus on the item given below.
Endpoint output: IC50 of Cc1cc(N)nc(-c2c(F)cc3c(N4CC5CCC(C4)N5)nc(OCC4(CN5CCOCC5)CC4)nc3c2F)c1C(F)(F)F [Ex. 87] . Value?
11400

###

Each entry below lists one item and its recorded log10(IC50) value.
Biological target: KRAS protein containing G12D mutation (Homo sapiens (Human), UniProt P01116, G12D)
Experiment: SOS-catalyzed nucleotide exchange assay (GNE), TR-FRET
Format: biochemical
Settings: biotinylated KRAS G12D, SOS and GTP, 60-minute incubation
For clarity, the numbers are log10 values of IC50 expressed in nM.

COMPOUND	log10(IC50)
Cc1cccc2cc(O)cc(-c3c(F)cc4c(N5CC6CC[C@@](C)(C5)N6)nc(OC[C@@]56CCCN5C[C@H](F)C6)nc4c3F)c12 (single isomer, unassigned) [Ex. 179a]	0.71
C#Cc1cccc2c(F)c(O)cc(-c3c(F)cc4c(N5C[C@H]6CC[C@@](C)(C5)N6)nc(OC[C@@]56CCCN5C[C@H](F)C6)nc4c3F)c12 [202a]	2.48
CC[C@@H]1N[C@H]2CC[C@@H]1N(c1nc(OCC3(CN(C)C)CC3)nc3c(F)c(-c4cc(O)cc5ccccc45)c(Cl)cc13)C2	2.84
Fc1cc2c(N3CC4CCC(C3)N4)nc(OCC3(CN4CCOCC4)CC3)nc2c(F)c1-c1cccc2sncc12	3.71

# query: log10(IC50) of entry `CN(C)CC1(COc2nc(N3CC4(C)CCC(C)(C3)N4)c3cc(F)c(-c4cc(O)cc5ccccc45)c(F)c3n2)CC1`
1.81

###

We begin with a simple list: items and their reported IC50.
Molecular target: KRAS protein containing G12D mutation (Homo sapiens (Human), UniProt P01116, G12D)
Assay: SOS-catalyzed nucleotide exchange assay (GNE), TR-FRET
Type: biochemical
Conditions: biotinylated KRAS G12D, SOS and GTP, 60-minute incubation
Your answer should be a plain number; it is taken to be in nM.

Some molecules with known IC50 results, for comparison:
MOLECULE	EXPERIMENTAL SYSTEM	VALUE
CO[C@@H]1CCN(C[C@@]2(COc3nc(N4CC5CC[C@@](C)(C4)N5)c4cc(F)c(-c5cc(O)cc6cccc(Cl)c56)c(F)c4n3)CC2(F)F)C1 (single isomer, unassigned) [Ex. 215a]	KRAS protein containing G12D mutation (Homo sapiens (Human), UniProt P01116, G12D)	5.06
CN(C)CC1(COc2nc(N3C[C@@H]4CC[C@H]3CN4)c3cc(F)c(-c4cc(O)cc5ccccc45)c(F)c3n2)CC1 [Example 7]	KRAS protein containing G12D mutation (Homo sapiens (Human), UniProt P01116, G12D)	35.5
Cc1c(Cl)cc2[nH]nc(C)c2c1-c1c(F)cc2c(N3C[C@H]4CC[C@@](C)(C3)N4)nc(OC[C@]3(CN(C)C)CC3(F)F)nc2c1F [Ex 75]	KRAS protein containing G12D mutation (Homo sapiens (Human), UniProt P01116, G12D)	1440

// moving on: another record for IC50
Any idea what IC50 was measured for CCc1cccc2cc(O)cc(-c3c(F)cc4c(N5CC6CC[C@@](C)(C5)N6)nc(OC[C@@]56CCCN5C[C@H](F)C6)nc4c3F)c12 (single isomer, unassigned) [Ex. 178a] ?
1.73
